- Species: Rattus norvegicus
- assay.info: Open TG-GATES - Regimen: Daily Repeat
- Format: toxicity, organism-based, Sprague-Dawley
- Design: regimen Daily Repeat, gender Male, age 6 weeks
- settings: in vivo, po, 1000 mg/kg, 72 h, tissue Plasma, route gavage, dose level High, time 3 day
Listing of recorded AST by entry.

{"columns": ["compound", "AST (IU/L)"],
 "data": [
  ["CC(C)(S)[C@@H](N)C(=O)O", 60.8],
  ["CCN1CCCC1CNC(=O)c1cc(S(N)(=O)=O)ccc1OC (centres undefined) [SULPIRIDE]", 62.4],
  ["O=C(O)c1cccnc1", 77.8],
  ["O=C(N[C@H](CO)[C@H](O)c1ccc([N+](=O)[O-])cc1)C(Cl)Cl", 75]
]}

###

Listing of recorded GLC by entry.
- Organism: Rattus norvegicus
- assay.info: Open TG-GATES - Regimen: Daily Repeat
- Format: toxicity, organism-based, Sprague-Dawley
- Set-up: regimen Daily Repeat, gender Male, age 6 weeks
- settings: in vivo, po, 100 mg/kg, […], tissue Plasma, route gavage, dose level Low, time 14 day

{"columns": ["molecule", "GLC [mg/dL]"],
 "data": [
  ["O=C(N[C@H](CO)[C@H](O)c1ccc([N+](=O)[O-])cc1)C(Cl)Cl", 191],
  ["CCN1CCCC1CNC(=O)c1cc(S(N)(=O)=O)ccc1OC (centres undefined) [SULPIRIDE]", 197],
  ["CC(C)(S)[C@@H](N)C(=O)O", 194.4],
  ["O=C(O)c1cccnc1", 196.4]
]}

###

- Organism: Rattus norvegicus
- assay.info: Open TG-GATES - Regimen: Daily Repeat
- Assay type: toxicity, organism-based, Sprague-Dawley
- Parameters: regimen Daily Repeat, gender Male, age 6 weeks
- settings: in vivo, po, 0 mg/kg, 72 h, tissue Blood, route gavage, dose level Control, time 3 day
Listing of recorded RBC by entry.

{"columns": ["compound", "RBC / x10_4/ul"],
 "data": [
  ["CC(=N)S [THIOACETAMIDE]", 652.8],
  ["C#C[C@]1(O)CC[C@H]2[C@@H]3CCc4cc(O)ccc4[C@H]3CC[C@@]21C [ETHINYL ESTRADIOL]", 630.4],
  ["CCSCC[C@H](N)C(=O)O [ETHIONINE]", 621.6],
  ["CC(C)C(=O)Nc1ccc([N+](=O)[O-])c(C(F)(F)F)c1 [FLUTAMIDE]", 648],
  ["CC(=O)Oc1cc(C(C)C)c(OCCN(C)C)cc1C [MOXISYLYTE]", 655.4]
]}

###

Listing of recorded RBC by entry.
- Species on record: Rattus norvegicus
- assay.info: Open TG-GATES - Regimen: Single
- Type: toxicity, organism-based, Sprague-Dawley
- Set-up: regimen Single, gender Male, age 6 weeks
- settings: in vivo, po, 0 mg/kg, 6 h, tissue Blood, route gavage, dose level Control

{"columns": ["smiles.record", "RBC, x10_4/ul"],
 "data": [
  ["Oc1ncnc2[nH]ncc12", 634],
  ["O=C(N[C@H](CO)[C@H](O)c1ccc([N+](=O)[O-])cc1)C(Cl)Cl", 613.2],
  ["Nc1nc(N)c2nc(-c3ccccc3)c(N)nc2n1", 653.2],
  ["C[C@](N)(Cc1ccc(O)c(O)c1)C(=O)O", 622.2],
  ["CC(C)(S)[C@@H](N)C(=O)O", 646.2],
  ["C#C[C@]1(O)CC[C@H]2[C@@H]3CCc4cc(O)ccc4[C@H]3CC[C@@]21C", 620.2],
  ["O=C(O)c1cccnc1", 643.6],
  ["C[C@]12CCC(=O)C=C1CC[C@@H]1[C@@H]2CC[C@@]2(C)[C@H]1CC[C@]2(C)O", 612],
  ["CCSCC[C@H](N)C(=O)O", 640.6],
  ["CCc1oc2ccccc2c1C(=O)c1cc(I)c(O)c(I)c1", 636.4],
  ["CN1C(=O)OC(C)(C)C1=O", 615.2]
]}
